Ref: patent US20240150440A1

- tested-target: SARS-CoV-2 spike protein on pseudotyped lentivirus (Wuhan Reference Pseudovirus) (SARS-CoV-2, UniProt P0DTC2 14-1273)
- assay-text: cell-based or functional assay
property-name: infectivity % under 10 ug/mL VHH treatment

Some binders with known infectivity % under 10 ug/mL VHH treatment results, for comparison:
PP888 MBP-S1b-E11-H6 (VHH, Form: Monomer) VHH: QVQLVESGGGLVQPGGSLRLSCAASGSYASIASMHWFRQAPGKEREFVAGVTSGGSTNYGDSVKGRFTISRDNAKNTVYLQMNSLKPEDTAVYYCNALAGANYESQWEEYNYWGQGTQVTVSS :: 80%
PP935 MBP-5HVZ-S3b-E11-H6 (VHH, Form: Dimer) VHH: QVQLVESGGGLVQPGGSLRLSCAASGDIYSQSAMAWYRQAPGKEREFVAAITTTGSRSYKDSVKGRFTISRDNAKNTVYLQMNSLKPEDTAVYYCAAFAVRSSSVSDAYDYWGQGTQVTVSS :: 48.9%

// query I'd like to know its infectivity % under 10 ug/mL VHH treatment. The binder in question is PP922 MBP-R5a-F5-H6 (VHH, Form: Monomer) VHH: QVQLVESGGGLVQPGGSLRLSCAASGYHASILAMHWVRQAPGKEREWVASMTWSDMTQYSDSVKGRFTISRDNAKNTVYLQMNSLKPEDTAVYYCAATYVTRDRPWTHWGQGTQVTVSS
// result 67.7%

// query Please give the result for PP886 MBP-S1a-C4-H6 (VHH) VHH: QVQLVESGGGLVQPGGSLRLSCAASGSRDSINTAHWYRQAPGKAREWVASLDNSTTGSYADSVKGRFTISRDNAKNTVYLQMNSLKPEDTAVYYCAAVTGTPGGLGFYDYWGQGTQVTVSS too.
// result 84.8%

// query Please do the same for PP848 MBP-R5E-G2-H6 (VHH, Form: Monomer) VHH: QVQLVESGGGLVQPGGSLRLSCAASGTIKSINAMHWFRQAPGKAREFVASIGSNGAKSYSDSVKGRFTISRDNAKNTVYLQMNSLKPEDTAVYYCTALITVAESDDYDYWGQGTQVTVSS as well.
// result 81.9%
